Quick list: pIC50 per entry.
Biological target: Human recombinant MMP-2 (Homo sapiens)
Construct: made in house; host or cells: MMP-2-transfected p2AHT2 cells
Sequence (P08253 110-660): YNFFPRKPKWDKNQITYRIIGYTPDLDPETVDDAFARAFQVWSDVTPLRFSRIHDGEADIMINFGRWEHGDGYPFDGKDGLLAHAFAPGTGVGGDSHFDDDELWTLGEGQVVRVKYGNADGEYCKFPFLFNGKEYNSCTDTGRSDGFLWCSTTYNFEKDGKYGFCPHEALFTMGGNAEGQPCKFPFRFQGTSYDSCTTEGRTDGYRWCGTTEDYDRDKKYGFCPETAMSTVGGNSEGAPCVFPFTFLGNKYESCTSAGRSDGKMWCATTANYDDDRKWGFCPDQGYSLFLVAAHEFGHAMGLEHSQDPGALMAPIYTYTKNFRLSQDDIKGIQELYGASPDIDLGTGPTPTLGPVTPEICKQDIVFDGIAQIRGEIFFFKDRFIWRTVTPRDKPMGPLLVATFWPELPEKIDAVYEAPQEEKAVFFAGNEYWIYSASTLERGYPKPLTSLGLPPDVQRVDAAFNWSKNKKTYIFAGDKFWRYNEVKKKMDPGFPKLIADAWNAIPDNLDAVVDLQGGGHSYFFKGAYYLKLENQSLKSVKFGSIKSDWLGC
Experiment: In vitro MMP inhibition, IC50 determination (fluorogenic substrate I)
Assay type: biochemical
Details: value outside parentheses (Ki in parenthesis)
pIC50: −log10 of the molar value.
parameter: pIC50

>>> observed_measurement("COc1ccc(C(=CCCCOc2ccc(S(=O)(=O)C3(C(=O)NO)CCOCC3)cc2)c2ccc(OC)cc2)cc1 [Example 349]")
6.30
>>> observed_measurement("COC(=O)c1ccccc1S(=O)(=O)N1CC(Oc2ccc(S(=O)(=O)C3(C(=O)NO)CCOCC3)cc2)C1 [Example 482]")
5.48
>>> observed_measurement("Cc1cc(C(=O)NCCCOc2ccc(S(=O)(=O)C3(C(=O)NO)CCOCC3)cc2)no1 [Example 386]")
6.88
>>> observed_measurement("Cc1oc(CCCOc2ccc(S(=O)(=O)C3(C(=O)NO)CCOCC3)cc2)nc1-c1ccccc1 [Example 317]")
6.92
>>> observed_measurement("COc1ccc(OC)c(-c2nnc(CCCOc3ccc(S(=O)(=O)C4(C(=O)NO)CCOCC4)cc3)o2)c1 [Example 291]")
7.00
>>> observed_measurement("O=C(NCCCOc1ccc(S(=O)(=O)C2(C(=O)NO)CCOCC2)cc1)c1cccc2ccccc12 [Example 375]")
6.37
>>> observed_measurement("O=C(NO)C1(S(=O)(=O)c2ccc(OCCCSCc3cccc(OC(F)(F)F)c3)cc2)CCOCC1 [Example 441]")
7.89
>>> observed_measurement("O=C(c1cccc(C(F)(F)F)c1)N1CC[C@@H](Oc2ccc(S(=O)(=O)C3(C(=O)NO)CCOCC3)cc2)C1 [Example 424]")
6.31
>>> observed_measurement("COc1ccc(OCCCCOc2ccc(S(=O)(=O)C3(C(=O)NO)CCOCC3)cc2)cc1 [Example 450]")
8.18
>>> observed_measurement("CCCCOc1ccc(C(=O)NCCCOc2ccc(S(=O)(=O)C3(C(=O)NO)CCOCC3)cc2)cc1 [Example 364]")
6.60
>>> observed_measurement("O=C(CCCCOc1ccc(S(=O)(=O)C2(C(=O)NO)CCOCC2)cc1)c1cccs1 [Example 324]")
8.38
>>> observed_measurement("CC(C)=CC1C(COc2ccc(S(=O)(=O)C3(C(=O)NO)CCOCC3)cc2)C1(C)C (stereo not shown) [Example 471]")
6.57
>>> observed_measurement("O=C(NO)C1(S(=O)(=O)c2ccc(OCCCSCc3ccccc3)cc2)CCOCC1 [Example 439]")
5.70
>>> observed_measurement("O=C(CCCOc1ccc(S(=O)(=O)C2(C(=O)NO)CCOCC2)cc1)Cc1ccc(Cl)cc1 [Example 302]")
9.70
>>> observed_measurement("N#Cc1cccc(C(=O)NCCCOc2ccc(S(=O)(=O)C3(C(=O)NO)CCOCC3)cc2)c1 [Example 367]")
6.63
>>> observed_measurement("O=C(CCCOc1ccc(S(=O)(=O)C2(C(=O)NO)CCOCC2)cc1)Nc1cc2ccccc2cc1O [Example 312]")
8.04
>>> observed_measurement("C=CCCCOc1ccc(S(=O)(=O)C2(C(=O)NO)CCOCC2)cc1 [Example 481]")
8.89
>>> observed_measurement("Cc1cc(C)c(C(=O)NCCCOc2ccc(S(=O)(=O)C3(C(=O)NO)CCOCC3)cc2)c(C)c1 [Example 370]")
6.05
>>> observed_measurement("O=C(NO)C1(S(=O)(=O)c2ccc(OCCCS(=O)(=O)N3CCOCC3)cc2)CCOCC1 [Example 315]")
7.89
>>> observed_measurement("CC(C)(COc1ccc(S(=O)(=O)C2(C(=O)NO)CCOCC2)cc1)CS(=O)(=O)Cc1ccccc1 [Example 438]")
6.30
>>> observed_measurement("O=C(CCCOc1ccc(S(=O)(=O)C2(C(=O)NO)CCOCC2)cc1)c1ccc(-c2ccccc2)cc1 [Example 356]")
7.48
>>> observed_measurement("COc1ccc(S(=O)(=O)C[C@@H](C)COc2ccc(S(=O)(=O)C3(C(=O)NO)CCOCC3)cc2)cc1 [Example 431]")
6.94
>>> observed_measurement("COc1cc2c(cc1OC)C(c1ccccc1)NC(C(=O)OCCCCOc1ccc(S(=O)(=O)C3(C(=O)NO)CCOCC3)cc1)C2 (stereo not shown) [Example 336]")
6.52
>>> observed_measurement("O=C(NO)C1(S(=O)(=O)c2ccc(OCCCNc3nc4ccccc4o3)cc2)CCOCC1 [Example 321]")
5.77
>>> observed_measurement("O=C(CCCOc1ccc(S(=O)(=O)C2(C(=O)NO)CCOCC2)cc1)c1cccc2ccccc12 [Example 352]")
7.47
>>> observed_measurement("CON(C)C(=O)CCCCOc1ccc(S(=O)(=O)C2(C(=O)NO)CCOCC2)cc1 [Example 329]")
6.99
>>> observed_measurement("COc1ccc(C(=O)CCCCOc2ccc(S(=O)(=O)C3(C(=O)NO)CCOCC3)cc2)c(OC)c1 [Example 351]")
7.47
